B1: NECAB1 (parent)
chain: NLDTEELCEYFSQHLGEYENVLAA

variants of: B1; assay: protein stability index of a GFP-peptide fusion (GPS, HEK-293T) (PSI 1-6); higher = more stable; conditions: c terminus: a fixed tail appended;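 also: lentivirally expressed fusions sorted by FACS into six bins by GFP to DsRed ratio, PSI derived from sequencing read proportions per bin multiplied by bin number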
Class MET: protein stability index at least 2. Class NOT MET: protein stability index below 2.

Solved cases (2 shown):
L15E | MET
S12G | MET

Textbook exercise: given the entry `D3A` , state whether its protein stability index is greater than or equal to 2.
MET

Textbook exercise: given the entry `A24K` , state whether its protein stability index is greater than or equal to 2.
MET
